# tested.target: T1, Human ST2 (human, UniProt Q01638 19-328, limits assumed)
# T1 construct: also called human ST2 protein; Interleukin 1 receptor-like 1
# T1 sequence (looked up): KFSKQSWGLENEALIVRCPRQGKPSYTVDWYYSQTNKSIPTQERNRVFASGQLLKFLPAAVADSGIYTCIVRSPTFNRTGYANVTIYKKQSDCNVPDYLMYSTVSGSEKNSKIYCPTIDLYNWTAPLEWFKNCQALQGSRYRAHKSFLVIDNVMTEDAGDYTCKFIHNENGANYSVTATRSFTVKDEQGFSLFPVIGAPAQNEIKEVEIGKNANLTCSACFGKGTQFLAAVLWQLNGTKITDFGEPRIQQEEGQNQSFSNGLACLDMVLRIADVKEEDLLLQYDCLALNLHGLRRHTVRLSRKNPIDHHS
# experimental.protocol: SPR (Carterra), antibody immobilized, ST2 analyte
Quick reference: kon of the listed items.
Dear colleague, please return just the value in M⁻¹ s⁻¹, with no unit written.

Human ST2 IgG1 Antibody 17 (antibody, V domains shown, IgG1; also called ST2 Antibody 17) VH: QVQLVQSGAEVKKPGASVKVSCKASGYTFTDSFMFWVRQAPGQGLEWVGLINPGTGATIFAQKFQGRVTMTRDTSTSTVYMELSSLRSEDTAVYYCARSSDYDSSDYWGQGTLVTVSS VL: DIQMTQSPSSLSASVGDRVTITCRASQSISTWLAWYQQKPGKAPKLLIYGASSLQSGVPSRFSGSGSGTDFTLTISSLQPEDFATYYCQQSYNSPYTFGQGTKVEIKR | 76000
Human ST2 IgG1 Antibody 90 (antibody, V domains shown, IgG1; also called ST2 Antibody 90) VH: QVQLVQSGAEVKKPGSSVKVSCKASGYTFSDFSIHWVRQAPGQGLEWMGGMLPISHIAHYARKFQGRVTITADESTSTAYMELSSLRSEDTAVYYCARGGSSGWFEVWGQGTTVTVSS VL: DIVMTQSPLSLPVTPGEPASISCRSSQSLLHSNGYNYLDWYLQKPGQSPQLLIYAASTLQSGVPDRFSGSGSGTDFTLKISRVEAEDVGVYYCMQGAHWPPTFGQGTKLEIKR | 170000
Human ST2 IgG1 Antibody 89 (antibody, V domains shown, IgG1; also called ST2 Antibody 89) VH: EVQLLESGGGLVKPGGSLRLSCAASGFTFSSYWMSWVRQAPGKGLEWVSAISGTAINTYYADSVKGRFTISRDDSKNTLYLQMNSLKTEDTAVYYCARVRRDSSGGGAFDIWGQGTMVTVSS VL: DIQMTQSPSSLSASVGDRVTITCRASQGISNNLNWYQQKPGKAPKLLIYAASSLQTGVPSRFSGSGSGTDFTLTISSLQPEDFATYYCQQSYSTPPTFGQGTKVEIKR | 240000
Human ST2 IgG1 Antibody 73 (antibody, V domains shown, IgG1; also called ST2 Antibody 73) VH: EVQLLESGGGLVQPGGSLRLSCAASGFAFSSHWMHWVRQAPGKGLEWVAVISYDGSNKYYADSVKGRFTISRDNSKNTLYLQMNSLRAEDTAVYYCARDRGMIDYWGQGTLVTVSS VL: DIQMTQSPSSLSASVGDRVTITCRASQGIGSWLAWYQQKPGKAPKLLIHAATKLQTGVPSRFSGSGSGTDFTLTISSLQPEDFATYYCQQSYSTPFTFGPGTKVDIKR | 140000

Read the next record carefully.
Task item: Request the reported kon associated with Human ST2 IgG1 Antibody 42 (antibody, V domains shown, IgG1; also called ST2 Antibody 42) VH: QVQLVQSGAEVKKPGASVKVSCKASGYTFNSHWVHWVRQAPGQGLEWMGWISAYNGNTNYAQKLQGRVTMTRDTSTSTVYMELSSLRSEDTAVYYCASGDYPYYYYGMDVWGQGTTVTVSS VL: DIQMTQSPSSLSASVGDRVTITCRASQGVANWLAWYQQKPGKAPKLLIYSASNLQSGVPSRFSGSGSGTDFTLTISSLQPEDFATYYCQQSSSFPLTFGQSTRLEIKR
Reply: 320000
